Reported cell viability values follow for various compounds
test system: Mel-DCC-11-R; assay: cell viability relative to DMSO control (fraction of DMSO control); higher = less cytotoxic, active = 0.8 or less; conditions: 1 µM; 120 h; vemurafenib co-treatment 0 µM
property_label: cell viability

>  <compound>
CC(=O)O[C@H]1C(=O)[C@]2(C)[C@@H](O)C[C@H]3OC[C@@]3(OC(C)=O)[C@@H]2[C@@H](OC(=O)c2ccccc2)[C@]2(O)C[C@H](OC(=O)[C@H](O)[C@@H](NC(=O)c3ccccc3)c3ccccc3)C(C)=C1C2(C)C

>  <target_of_assay>
Mel-DCC-11-R

>  <observed_measurement>
1.06

$$$$
>  <compound>
N#Cc1ccc(C(c2ccc(C#N)cc2)n2cncn2)cc1

>  <target_of_assay>
Mel-DCC-11-R

>  <observed_measurement>
1.08

$$$$
>  <compound>
COc1ccc([C@@H]2CC(=O)c3c(O)cc(O)cc3O2)cc1O

>  <target_of_assay>
Mel-DCC-11-R

>  <observed_measurement>
0.891

$$$$
>  <compound>
O=C(Nc1c(Cl)cncc1Cl)c1ccc(OC(F)F)c(OCC2CC2)c1

>  <target_of_assay>
Mel-DCC-11-R

>  <observed_measurement>
1.15

$$$$
>  <compound>
CN(CCOc1ccc(CC2SC(=O)NC2=O)cc1)c1ccccn1.O=C(O)/C=C\C(=O)O (stereo not given) [Rosiglitazone maleate]

>  <target_of_assay>
Mel-DCC-11-R

>  <observed_measurement>
0.97

$$$$
>  <compound>
Cn1nnc2c(C(N)=O)ncn2c1=O [Temozolomide]

>  <target_of_assay>
Mel-DCC-11-R

>  <observed_measurement>
0.884

$$$$
>  <compound>
CCN1CCN(Cc2ccc(Nc3ncc(F)c(-c4cc(F)c5nc(C)n(C(C)C)c5c4)n3)nc2)CC1.CS(=O)(=O)O [abemaciclib mesylate]

>  <target_of_assay>
Mel-DCC-11-R

>  <observed_measurement>
1.8

$$$$
>  <compound>
O=C(CCCCCCC(=O)Nc1ccccc1)NO

>  <target_of_assay>
Mel-DCC-11-R

>  <observed_measurement>
0.923

$$$$
>  <compound>
CC(C)C[C@H](NC(=O)[C@H](CCc1ccccc1)NC(=O)CN1CCOCC1)C(=O)N[C@@H](Cc1ccccc1)C(=O)N[C@@H](CC(C)C)C(=O)[C@@]1(C)CO1

>  <target_of_assay>
Mel-DCC-11-R

>  <observed_measurement>
0.0186

$$$$
>  <compound>
C#Cc1cccc(Nc2ncnc3cc(OCCOC)c(OCCOC)cc23)c1

>  <target_of_assay>
Mel-DCC-11-R

>  <observed_measurement>
1.03

$$$$
>  <compound>
Nc1cccc2c1C(=O)N(C1CCC(=O)NC1=O)C2=O (stereo not given) [Pomalidomide]

>  <target_of_assay>
Mel-DCC-11-R

>  <observed_measurement>
1

$$$$
>  <compound>
N#CC[C@H](C1CCCC1)n1cc(-c2ncnc3[nH]ccc23)cn1 [(R)-Ruxolitinib]

>  <target_of_assay>
Mel-DCC-11-R

>  <observed_measurement>
0.967

$$$$
>  <compound>
CNC(=O)c1ccc(N2C(=S)N(c3cnc(C#N)c(C(F)(F)F)c3)C(=O)C23CCC3)cc1F [Apalutamide]

>  <target_of_assay>
Mel-DCC-11-R

>  <observed_measurement>
0.958

$$$$
>  <compound>
COc1cc(NS(C)(=O)=O)ccc1Nc1c2ccccc2nc2ccccc12

>  <target_of_assay>
Mel-DCC-11-R

>  <observed_measurement>
1.06

$$$$
>  <compound>
C[C@]12CC[C@@H]3c4ccc(O)cc4C[C@@H](CCCCCCCCCS(=O)CCCC(F)(F)C(F)(F)F)[C@H]3[C@@H]1CC[C@@H]2O (stereo not given in full)

>  <target_of_assay>
Mel-DCC-11-R

>  <observed_measurement>
0.987

$$$$
